# target.under.test: T1, rHuman P-Cadherin/Fc Chimera (human, UniProt P22223 108-654)
# T1 construct: Bought from R&D Systems (Cat#861-PC)
# protocol.details: ECL multispot (MSD) binding assay; antigen spotted on plate, Fab in solution;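 note: purified Fab bound for 1 h at 20 °C, detected with a TAG-labelled antibody, electrochemiluminescence compared with each well's blank, signal-to-blank ratio of at least 4 scored as hit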
reported.property: ECL signal
Give your answer as a number; write no unit.

Use these answered entries as a reference point.
binder="Fab VH1-46_IGHD6-6*01_IGHJ1*01 S102A/S103P/S104F/H111F (APFF) & L6_IGKJ1*01 S92C (Fab, V domains shown, Tested as Fab made in E. coli: VH cloned into Plasmid A (CH1, His6 and Flag tags), kappa VL into Plasmid C (kappa CL); also called APFF / S92C) VH: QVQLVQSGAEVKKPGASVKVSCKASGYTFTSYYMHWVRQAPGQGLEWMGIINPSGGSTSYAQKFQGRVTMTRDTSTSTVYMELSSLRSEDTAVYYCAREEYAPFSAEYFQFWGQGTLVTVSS VL: EIVLTQSPATLSLSPGERATLSCRASQSVSSYLAWYQQKPGQAPRLLIYDASNRATGIPARFSGSGSGTDFTLTISSLEPEDFAVYYCQQRCNWPPWTFGQGTKVEIKR" reported_property="ECL signal" measurement=805
binder="Fab VH1-46_IGHD6-6*01_IGHJ1*01 S102A/S103P/S104F/H111F (APFF) & L6_IGKJ1*01 S92M (Fab, V domains shown, Tested as Fab (CH1 with His6/Flag tags from Plasmid A; kappa CL from Plasmid C); also called APFF / S92M) VH: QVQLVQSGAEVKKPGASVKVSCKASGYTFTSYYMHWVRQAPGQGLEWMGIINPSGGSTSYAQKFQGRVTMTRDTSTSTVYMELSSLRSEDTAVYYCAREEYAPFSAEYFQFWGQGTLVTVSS VL: EIVLTQSPATLSLSPGERATLSCRASQSVSSYLAWYQQKPGQAPRLLIYDASNRATGIPARFSGSGSGTDFTLTISSLEPEDFAVYYCQQRMNWPPWTFGQGTKVEIKR" reported_property="ECL signal" measurement=328
binder="Fab VH1-46_IGHD6-6*01_IGHJ1*01 S102A/S103P/S104F/H111F (APFF) & L6_IGKJ1*01 S92N (Fab, V domains shown, Tested as Fab (CH1 with His6/Flag tags from Plasmid A; kappa CL from Plasmid C); also called APFF / S92N) VH: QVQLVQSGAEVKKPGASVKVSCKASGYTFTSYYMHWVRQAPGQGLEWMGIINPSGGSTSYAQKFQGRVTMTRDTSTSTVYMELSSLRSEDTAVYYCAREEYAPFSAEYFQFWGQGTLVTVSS VL: EIVLTQSPATLSLSPGERATLSCRASQSVSSYLAWYQQKPGQAPRLLIYDASNRATGIPARFSGSGSGTDFTLTISSLEPEDFAVYYCQQRNNWPPWTFGQGTKVEIKR" reported_property="ECL signal" measurement=271

Now examine the next entry.
**Query** Look up ECL signal: Fab VH1-46_IGHD6-6*01_IGHJ1*01 S102A/S103P/S104F/H111F (APFF) & L6_IGKJ1*01 S92V (Fab, V domains shown, Tested as Fab (CH1 with His6/Flag tags from Plasmid A; kappa CL from Plasmid C); also called APFF / S92V) VH: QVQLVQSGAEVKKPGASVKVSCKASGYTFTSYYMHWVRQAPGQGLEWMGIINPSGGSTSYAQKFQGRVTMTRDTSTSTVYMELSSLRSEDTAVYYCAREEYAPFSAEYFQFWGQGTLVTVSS VL: EIVLTQSPATLSLSPGERATLSCRASQSVSSYLAWYQQKPGQAPRLLIYDASNRATGIPARFSGSGSGTDFTLTISSLEPEDFAVYYCQQRVNWPPWTFGQGTKVEIKR
**Result** 390
